assay: Solid stability test of the crystal forms (influence factors and acceleration tests; appearance, XRPD, HPLC content and impurities); format: physicochemical; conditions: 0 day (initial)
Parameter measured: Total Impurities (%)

These recorded examples may help you get a feel for the data.
In [3]: df
Out[3]:
                                   compound  value_observed
0  C=CC(=O)N[C@H]1COC[C@H]1Nc1ncc(/C=C(\F)c2c(Cl)c(OC)cc(OC)c2Cl)cn1 [Crystal Form B]            0.41
1  C=CC(=O)N[C@H]1COC[C@H]1Nc1ncc(/C=C(\F)c2c(Cl)c(OC)cc(OC)c2Cl)cn1 [Crystal Form A]            1.12
2  C=CC(=O)N[C@H]1COC[C@H]1Nc1ncc(/C=C(\F)c2c(Cl)c(OC)cc(OC)c2Cl)cn1 [Crystal Form D]            0.90

A: C=CC(=O)N[C@H]1COC[C@H]1Nc1ncc(/C=C(\F)c2c(Cl)c(OC)cc(OC)c2Cl)cn1 [Crystal Form C]
B: C=CC(=O)N[C@H]1COC[C@H]1Nc1ncc(/C=C(\F)c2c(Cl)c(OC)cc(OC)c2Cl)cn1.CS(=O)(=O)O [Crystal Form E]
C: C=CC(=O)N[C@H]1COC[C@H]1Nc1ncc(/C=C(\F)c2c(Cl)c(OC)cc(OC)c2Cl)cn1.CS(=O)(=O)O [Crystal Form F]
Challenge: Number of compounds to sort: 3. Sort criterion: Total Impurities (%), ascending. Ranked list of labels, please, in the requested order.
Response given: B, C, A

----------
Assay: Solid stability test of the crystal forms (influence factors and acceleration tests; appearance, XRPD, HPLC content and impurities)
Assay type: physicochemical
Settings: 0 day (initial)
Source text: A sample of the crystal form A was placed on the bottom of a glass sample bottle, and spread to a thin layer. […] Samples were taken and analyzed at various time points, and the test results were compared with the initial test results of 0 day, the inspection items included appearance, content and impurities, and the test results are shown in Table 9. […]
Parameter measured: Appearance

                                   compound  parameter_measured  value_observed
0  C=CC(=O)N[C@H]1COC[C@H]1Nc1ncc(/C=C(\F)c2c(Cl)c(OC)cc(OC)c2Cl)cn1 [Crystal Form A]          Appearance       Off-white
1  C=CC(=O)N[C@H]1COC[C@H]1Nc1ncc(/C=C(\F)c2c(Cl)c(OC)cc(OC)c2Cl)cn1 [Crystal Form C]          Appearance       Off-white
2  C=CC(=O)N[C@H]1COC[C@H]1Nc1ncc(/C=C(\F)c2c(Cl)c(OC)cc(OC)c2Cl)cn1.CS(=O)(=O)O [Crystal Form E]          Appearance           White
3  C=CC(=O)N[C@H]1COC[C@H]1Nc1ncc(/C=C(\F)c2c(Cl)c(OC)cc(OC)c2Cl)cn1 [Crystal Form D]          Appearance       Off-white
4  C=CC(=O)N[C@H]1COC[C@H]1Nc1ncc(/C=C(\F)c2c(Cl)c(OC)cc(OC)c2Cl)cn1.CS(=O)(=O)O [Crystal Form F]          Appearance           White

Turning now to a further compound:
Challenge: Return reported Appearance; argument: C=CC(=O)N[C@H]1COC[C@H]1Nc1ncc(/C=C(\F)c2c(Cl)c(OC)cc(OC)c2Cl)cn1 [Crystal Form B]
Response given: Off-white
